Each entry below carries its recorded pKd.
Biological target: phosphorylated c-ABL kinase domain (Homo sapiens)
Construct: phosphorylated and non-phosphorylated c-ABL kinase domain; purchased DiscoverRx Corporation (KinomeScan platform)
Test: KinomeScan in vitro binding affinity (Kd), phosphorylated c-ABL kinase domain
Settings: Table 2, read-out: ABL (phosphorylated)
pKd: −log10 of the molar value.
endpoint: pKd

compound	measurement
Cc1nc(Nc2ncc(C(=O)Nc3c(C)cccc3Cl)s2)cc(N2CCN(CCCCCCOCCCCCOCCCCCC(=O)N[C@H](C(=O)N3C[C@H](O)C[C@H]3C(=O)NCc3ccc(-c4scnc4C)cc3)C(C)(C)C)CC2)n1	8.89
COc1cc(Nc2c(C#N)cnc3cc(OCCCN4CCN(CCCCCCOCCCCCOCCCCCC(=O)Nc5cccc6c5C(=O)N(C5CCC(=O)NC5=O)C6=O)CC4)c(OC)cc23)c(Cl)cc1Cl (stereo not drawn)	8.96
Cc1ccc(NC(=O)c2ccc(CN3CCN(CCCCCCOCCCCCOCCCCCC(=O)Nc4cccc5c4C(=O)N(C4CCC(=O)NC4=O)C5=O)CC3)cc2)cc1Nc1nccc(-c2cccnc2)n1 (stereo not drawn)	6.44
Cc1nc(Nc2ncc(C(=O)Nc3c(C)cccc3Cl)s2)cc(N2CCN(CCCCCCOCCOCCOCCCCCC(=O)N[C@H](C(=O)N3C[C@H](O)C[C@H]3C(=O)NCc3ccc(-c4scnc4C)cc3)C(C)(C)C)CC2)n1	9.33
COc1cc(Nc2c(C#N)cnc3cc(OCCCN4CCN(CCCCCCOCCCCCOCCCCCC(=O)N[C@H](C(=O)N5C[C@H](O)C[C@H]5C(=O)NCc5ccc(-c6scnc6C)cc5)C(C)(C)C)CC4)c(OC)cc23)c(Cl)cc1Cl	8.82
Cc1nc(Nc2ncc(C(=O)Nc3c(C)cccc3Cl)s2)cc(N2CCN(CCCCCCOCCCCCOCCCCCC(=O)Nc3cccc4c3C(=O)N(C3CCC(=O)NC3=O)C4=O)CC2)n1 (stereo not drawn)	8.85
Cc1ccc(NC(=O)c2ccc(CN3CCN(CCCCCCOCCOCCOCCOCCOCCOCC(=O)Nc4cccc5c4C(=O)N(C4CCC(=O)NC4=O)C5=O)CC3)cc2)cc1Nc1nccc(-c2cccnc2)n1 (stereo not drawn)	7.08
Cc1ccc(NC(=O)c2ccc(CN3CCN(CCCCCCOCCOCCOCCOCCOCCOCC(=O)N[C@H](C(=O)N4C[C@H](O)C[C@H]4C(=O)NCc4ccc(-c5scnc5C)cc4)C(C)(C)C)CC3)cc2)cc1Nc1nccc(-c2cccnc2)n1	7.46
COc1cc(Nc2c(C#N)cnc3cc(OCCCN4CCN(CCCCCCOCCOCCOCCCCCC(=O)Nc5cccc6c5C(=O)N(C5CCC(=O)NC5=O)C6=O)CC4)c(OC)cc23)c(Cl)cc1Cl (stereo not drawn)	9.26

###

Target: phosphorylated c-ABL kinase domain (Homo sapiens, UniProt P00519)
Construct: phosphorylated and non-phosphorylated c-ABL kinase domain; purchased DiscoverRx Corporation (KinomeScan platform)
Sequence (P00519 242-493 limits assumed): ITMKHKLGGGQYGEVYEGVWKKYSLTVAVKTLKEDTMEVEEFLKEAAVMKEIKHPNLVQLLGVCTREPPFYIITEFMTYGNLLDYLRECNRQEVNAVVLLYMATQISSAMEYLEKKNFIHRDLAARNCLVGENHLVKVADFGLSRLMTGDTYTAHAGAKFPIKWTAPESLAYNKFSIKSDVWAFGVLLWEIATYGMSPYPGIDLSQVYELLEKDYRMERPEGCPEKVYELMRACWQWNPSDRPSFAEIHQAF
Assay: KinomeScan in vitro binding affinity (Kd), phosphorylated c-ABL kinase domain
Conditions: Table 2, read-out: ABL (phosphorylated)
endpoint: Kd (nM)

compound	endpoint	measurement
Cc1ccc(NC(=O)c2ccc(CN3CCN(CCCCCCOCCOCC(=O)Nc4cccc5c4C(=O)N(C4CCC(=O)NC4=O)C5=O)CC3)cc2)cc1Nc1nccc(-c2cccnc2)n1 (stereo not shown) [IMA-6-2-2-CRBN]	Kd	72
Cc1nc(Nc2ncc(C(=O)Nc3c(C)cccc3Cl)s2)cc(N2CCN(CCCCCCOCCOCC(=O)Nc3cccc4c3C(=O)N(C3CCC(=O)NC3=O)C4=O)CC2)n1 (stereo not shown) [DAS-6-2-2-CRBN]	Kd	0.19
Cc1ccc(NC(=O)c2ccc(CN3CCN(CCCCCCOCCCCCOCCCCCC(=O)N[C@H](C(=O)N4C[C@H](O)C[C@H]4C(=O)NCc4ccc(-c5scnc5C)cc4)C(C)(C)C)CC3)cc2)cc1Nc1nccc(-c2cccnc2)n1 [IMA-6-5-6-VHL]	Kd	46
Cc1ccc(NC(=O)c2ccc(CN3CCN(CCCCCCOCCOCC(=O)N[C@H](C(=O)N4C[C@H](O)C[C@H]4C(=O)NCc4ccc(-c5scnc5C)cc4)C(C)(C)C)CC3)cc2)cc1Nc1nccc(-c2cccnc2)n1 [IMA-6-2-2-VHL]	Kd	98
